Readings of pEC50 for the listed compounds
Test target: hTREM2 (Homo sapiens)
Experiment description: TREM2 activity by cellular Syk phosphorylation (AlphaScreen/AlphaLISA) in TREM2/DAP12-HEK cells, used for Examples 1-305
Format: cell-based
Design: expressed in transfected cells
Experimental parameters: HEK293 Cells
pEC50: −log10 of the molar value.
Measured attribute: pEC50

>>> result_value("Cc1cnc2c(-c3ccc(Cl)cc3F)nc([C@@H]3CCO[C@H](c4cnn(C5CC5)c4)C3)nc2n1")
"5.52 to 6.30"
>>> result_value("Cc1cc([C@H]2CN(c3nc(C45CC(C(F)(F)F)(C4)C5)c4ncc(C)nc4n3)CCO2)ccn1")
"≥ 7.30"
>>> result_value("Cc1cc([C@H]2C[C@H](c3nc(-c4ccc(Cl)cc4F)c4nc(C)c(C)nc4n3)CCO2)ccn1")
"≥ 7.30"
>>> result_value("Cc1nc2nc(N3CC[C@H](C(F)F)C3)nc(-c3ccc(Cl)cc3F)c2nc1C")
"6.30 to 7.30"
>>> result_value("Cc1nc2nc([C@@H]3CCO[C@@H](c4cnn(C)c4)C3)nc(-c3ccc(Cl)cc3F)c2nc1C")
"5.52 to 6.30"
>>> result_value("Cc1cc([C@H]2CN(c3nc4nc(C)cnc4c([C@H]4C[C@H](C(F)(F)F)C4)n3)CCO2)cnn1")
"5.52 to 6.30"
>>> result_value("CN1Cc2c(cc(N3CCO[C@@H](c4cnn(C5CC5)c4)C3)nc2-c2ccc(Cl)cc2F)C1=O")
"6.30 to 7.30"
>>> result_value("Cc1ccc2c(-c3ccc(F)cc3F)nc(N3CCO[C@@H](c4cnn(C)c4)C3)nc2n1")
"6.30 to 7.30"
>>> result_value("Cc1nc2cc(N3CCO[C@@H](c4cnn(C)c4)C3)nc(-c3ccc(Cl)cc3F)c2nc1C")
"≥ 7.30"
>>> result_value("Cc1nc2cc(N3CCO[C@@H](c4cnn(C)c4)C3)cc(-c3ccc(Cl)cc3F)c2nc1C")
"≥ 7.30"

----------
Test target: hTREM2 (Homo sapiens)
Experiment description: TREM2 activity by cellular Syk phosphorylation (AlphaScreen/AlphaLISA) in TREM2/DAP12-HEK cells, used for Examples 1-305
Type: cell-based
Design: expressed in transfected cells
Experimental parameters: HEK293 Cells
Measured attribute: EC50

>>> result_value("Cc1ccc2c(-c3ccc(Cl)cc3F)nc([C@H]3CCO[C@@H](c4cnn(C5CC5)c4)C3)nc2n1 (single isomer, unassigned)")
"≤ 50 nM"
>>> result_value("Cc1nc2nc(N3CCO[C@@H](c4cnn(C)c4)C3)nc(C3CCCC3)c2nc1C")
"50 to 500 nM"
>>> result_value("Cc1ccc2c(-c3ccc(F)cc3F)nc(N3CCO[C@@H](c4cnn(C5CC5)c4)C3)nc2n1")
"≤ 50 nM"
>>> result_value("Cc1nc2nc(N3CCO[C@@H](c4cnn(C)c4)C3)nc(-c3ccc(Cl)cn3)c2nc1C")
"50 to 500 nM"
>>> result_value("Cc1cc([C@@H]2CN(c3nc(-c4ccc(Cl)cc4F)c4ccc(C)nc4n3)CCO2)cnn1 [Example 259]")
"≤ 50 nM"
>>> result_value("Cc1ccc2c(-c3ccc(Cl)cc3F)nc([C@H]3CCO[C@@H](c4cnn(C)c4)C3)nc2n1")
"500 to 3000 nM"
>>> result_value("Cc1nc2nc(N3CCO[C@@H]([C@@H]4CCOC4)C3)nc(-c3ccc(F)cc3F)c2nc1C (single isomer, unassigned)")
"500 to 3000 nM"

----------
Test target: hTREM2 (Homo sapiens)
Experiment description: TREM2 activity by cellular Syk phosphorylation (AlphaScreen/AlphaLISA) in TREM2/DAP12-HEK cells, used for Examples 1-305
Format: cell-based
Design: expressed in transfected cells
Experimental parameters: HEK293 Cells
Description: In vitro Measurement of Triggering Receptor Expressed on Myeloid Cells 2 activity using cellular phosphorylation of Spleen Tyrosine Kinase (“Syk”) Assays used for Examples 1-305 Pharmacological measurements of TREM2 signaling through DAP12 were made with TREM2 and DAP12 overexpressing HEK293 cells stable cell lines that had been single-cell cloned (“TREM2/DAP12-HEK”). […]
Readings of EC50 for the listed compounds
Measured attribute: EC50

>>> result_value("Cc1nc2nc(N3CCO[C@@H](c4cnn(C)c4)C3)nc([C@H]3C[C@H](C(F)(F)F)C3)c2nc1C")
"≤ 50 nM"
>>> result_value("Cc1nc2nc(C3CCO[C@H](c4cnn(C)c4)C3)nc(-c3ccc(Cl)cc3F)c2nc1C (stereo in doubt)")
"50 to 500 nM"
>>> result_value("Cc1nc2nc(N3CCO[C@@H](c4cnn(C)c4)C3)nc([C@H]3C[C@H](C(F)F)C3)c2nc1C")
"50 to 500 nM"
>>> result_value("Cc1cc([C@@H]2C[C@@H](c3nc(-c4ccc(F)cc4F)c4ccc(C)nc4n3)CCO2)ccn1 (single isomer, unassigned)")
"500 to 3000 nM"
>>> result_value("Cc1cc([C@@H]2C[C@@H](c3nc(-c4ccc(Cl)cc4F)c4ccc(C)nc4n3)CCO2)ccn1 (single isomer, unassigned)")
"50 to 500 nM"
>>> result_value("Cc1ccc(-c2cc([C@H]3CCO[C@H](c4cnn(C)c4)C3)nc3nc(C)c(C)nc23)c(F)c1")
"500 to 3000 nM"
>>> result_value("Cc1nc2nc(N3CCO[C@@H](c4cnn(C5CC5)c4)C3)nc(-c3ccc(Cl)cc3F)c2nc1C")
"≤ 50 nM"
>>> result_value("Cc1cc([C@H]2CN(c3nc(C45CC(C(F)(F)F)(C4)C5)c4nc(C)c(C)nc4n3)CCO2)ccn1")
"≤ 50 nM"
>>> result_value("Cc1cc2cc(N3CCO[C@@H](c4cnn(C)c4)C3)nc(-c3ccc(Cl)cc3F)c2nc1C")
"3000 to 100000 nM"
>>> result_value("Cc1nc2nc(N3CCC(F)(F)[C@@H](c4cnn(C)c4)C3)nc(-c3ccc(Cl)cc3F)c2nc1C (single isomer, unassigned)")
"≤ 50 nM"
>>> result_value("Cc1cc([C@H]2CN(c3nc4nc(C)ccc4c([C@H]4C[C@H](C(F)(F)F)C4)n3)CCO2)ccn1")
"≤ 50 nM"
>>> result_value("Cn1cc([C@H]2CN(c3cc4ccccc4c(-c4ccc(Cl)cc4F)n3)CCO2)cn1")
"3000 to 100000 nM"
>>> result_value("Cc1nc2nc([C@H]3CCO[C@@H](c4cnn(C)c4)C3)nc(-c3ccc(Cl)cc3F)c2nc1C (single isomer, unassigned)")
"≤ 50 nM"
>>> result_value("Cc1cc([C@H]2C[C@@H](c3nc(-c4ccc(F)cc4F)c4nc(C)c(C)nc4n3)CCO2)ccn1 (single isomer, unassigned)")
"≤ 50 nM"

----------
Test target: hTREM2 (Homo sapiens, UniProt Q9NZC2)
Sequence (Q9NZC2 19-230): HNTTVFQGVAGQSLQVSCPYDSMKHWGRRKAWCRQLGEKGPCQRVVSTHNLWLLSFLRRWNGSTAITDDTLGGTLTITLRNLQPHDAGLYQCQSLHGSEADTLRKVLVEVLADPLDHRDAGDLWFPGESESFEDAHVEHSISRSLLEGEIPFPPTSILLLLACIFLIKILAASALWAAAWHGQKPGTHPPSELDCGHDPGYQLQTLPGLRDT
Sequence (O43914 22-113 partner): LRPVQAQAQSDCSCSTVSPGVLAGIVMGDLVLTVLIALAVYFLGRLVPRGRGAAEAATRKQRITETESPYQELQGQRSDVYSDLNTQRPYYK
Experiment description: TREM2 activity by cellular Syk phosphorylation (AlphaScreen/AlphaLISA) in TREM2/DAP12-HEK cells, used for Examples 1-305
Assay type: cell-based
Set-up: expressed in transfected cells
Experimental parameters: HEK293 Cells
Measured attribute: hTREM2 Emax

>>> result_value("Cc1ccc2c(-c3ccc(Cl)cc3F)nc(N3CCO[C@@H](c4cnn(C5CC5)c4)C3)cc2n1")
"++++ (Emax>250)"
>>> result_value("Cc1ccc2c(-c3ccc(F)cc3F)nc(N3CCO[C@@H](c4cnn(C)c4)C3)nc2n1")
"+++ (Emax>150 and ≤250)"
>>> result_value("Cc1cc([C@@H]2C[C@H](c3nc4nc(C)c(C)nc4c([C@H]4C[C@H](C(F)(F)F)C4)n3)CCO2)ccn1 (single isomer, unassigned)")
"++++ (Emax>250)"
>>> result_value("Cc1nc2nc(N3CCO[C@@H](c4cnn(C)c4)C3)nc(-c3ccc(C(F)(F)F)nc3)c2nc1C")
"+++ (Emax>150 and ≤250)"
>>> result_value("Cc1nc2nc([C@H]3CCO[C@@H](c4cnn(C)c4)C3)cc(-c3ccc(Cl)cc3F)c2nc1C (single isomer, unassigned)")
"+++ (Emax>150 and ≤250)"

----------
Test target: hTREM2 (Homo sapiens, UniProt Q9NZC2)
Experiment description: TREM2 activity by cellular Syk phosphorylation (AlphaScreen/AlphaLISA) in TREM2/DAP12-HEK cells, used for Examples 1-305
Assay type: cell-based
Parameters: expressed in transfected cells
Experimental parameters: HEK293 Cells
From the text: In vitro Measurement of Triggering Receptor Expressed on Myeloid Cells 2 activity using cellular phosphorylation of Spleen Tyrosine Kinase (“Syk”) Assays used for Examples 1-305 Pharmacological measurements of TREM2 signaling through DAP12 were made with TREM2 and DAP12 overexpressing HEK293 cells stable cell lines that had been single-cell cloned (“TREM2/DAP12-HEK”). […]
Measured attribute: hTREM2 Emax

>>> result_value("Cc1cc2c(-c3ccc(F)cc3F)nc(N3CCO[C@@H](c4cnn(C)c4)C3)nc2nc1C")
"++++ (Emax>250)"
>>> result_value("CCN1Cc2c(cc(N3CCO[C@@H](c4cnn(C)c4)C3)nc2-c2ccc(Cl)cc2F)C1=O")
"++++ (Emax>250)"
>>> result_value("Cc1nc2cc(N3CCO[C@@H](c4cnn(C)c4)C3)cc(-c3ccc(F)cc3F)c2nc1C")
"++++ (Emax>250)"
>>> result_value("Cc1cc2c(-c3ccc(Cl)cc3F)nc([C@@H]3CCO[C@@H](c4cnn(C)c4)C3)nc2nc1C (single isomer, unassigned)")
"+++ (Emax>150 and ≤250)"
>>> result_value("Cc1nc2nc(N3CC[C@H](C(F)F)C3)nc(-c3ccc(F)cc3F)c2nc1C")
"+++ (Emax>150 and ≤250)"
